Experiment: Rat pharmacokinetics, iv and po dosing, whole blood and plasma
Format: in vivo
Conditions: plasma, iv 1 mg/kg, mean

{"MOLECULE": "CC(C)CC1NC(=O)[C@H](CC(C)C)N(C)C(=O)CN(C)C(=O)C([C@@H](C)O)NC(=O)C([C@H](O)[C@H](C)CCN2CCOCC2)N(C)C(=O)C(C(C)C)N(C)C(=O)C(CC(C)C)NC(=O)C(CC(C)C)N(C)C(=O)C(C(C)C)OC(=O)C(C)NC(=O)C(CC(C)C)N(C)C1=O (stereo in doubt)", "UNIT LABEL": "ng·h/mL", "AUC(0-inf)": 239}

----------
Biological target: cyclophilin A (Cyp A) (Homo sapiens, UniProt P62937)
Construct: purchased Sigma C3805
Sequence (P62937 whole entry): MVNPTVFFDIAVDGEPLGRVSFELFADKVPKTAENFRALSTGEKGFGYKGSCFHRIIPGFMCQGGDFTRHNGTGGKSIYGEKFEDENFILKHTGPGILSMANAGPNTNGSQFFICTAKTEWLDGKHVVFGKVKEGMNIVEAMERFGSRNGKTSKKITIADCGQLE
Assay: Protease-free PPIase assay, cyclophilin A
Assay type: biochemical
Method: The protease-free PPIase assay measures the rate of cis to trans conversion of a peptide substrate catalyzed by the enzymes cyclophilin A and cyclophilin D. Addition of a cyclophilin inhibitor (e.g., a test compound) slows the catalyzed rate and a Ki value is obtained. […] All readings were taken with an Agilent 8453 Spectrophotometer which consists of a cuvette holder, stirrer and chiller to maintain a stirred cuvette temperature of 10.0±0.1° C. […]
Numbered stars: 1 amine (or outer) side, 2 acyl side, 3 side chain; on linkers, the order of the positions; unused ones are H or OH. Square brackets hold non-standard residues; d marks the D form. Peptide text beside a SMILES is read from it. X10 = Cc1cccc(/C=C/C[C@@H](C)[C@@H](O)[C@H](C(=O)[*:2])N(C)[*:1])n1; X20 = C[C@H](CCN1CCC(F)(F)CC1)[C@@H](O)[C@H](C(=O)[*:2])N(C)[*:1]; X1 = Cc1cccc(CCC[C@@H](C)[C@@H](O)[C@H](C(=O)[*:2])N(C)[*:1])n1; X34 = C[C@H](CCN1CCN(C)CC1)[C@@H](O)[C@H](C(=O)[*:2])N(C)[*:1]; X4 = C[C@H](C/C=C/c1ncccn1)[C@@H](O)[C@H](C(=O)[*:2])N(C)[*:1]; X15 = C[C@H](CCN1CCCCC1CO)[C@@H](O)[C@H](C(=O)[*:2])N(C)[*:1]; X18 = C[C@H](CCNCc1ccccc1)[C@@H](O)[C@H](C(=O)[*:2])N(C)[*:1]; X14 = C[C@H](CCCc1ncccn1)[C@@H](O)[C@H](C(=O)[*:2])N(C)[*:1]; d(aThr) = C[C@@H](O)[C@@H](N)C(=O)O; NMeL = CN[C@@H](CC(C)C)C(=O)O; dNMeL = CN[C@H](CC(C)C)C(=O)O; dNMeV = CN[C@@H](C(=O)O)C(C)C; Hiv = CC(C)[C@H](O)C(=O)O; dAbu = CC[C@@H](N)C(=O)O; Sar = CNCC(=O)O

{"COMPOUND": "C/C=C/C[C@@H](C)[C@@H](O)[C@@H]1C(=O)N[C@H]([C@@H](C)O)C(=O)N(C)CC(=O)N(C)[C@@H](CC(C)C)C(=O)N[C@H](CC(C)C)C(=O)N(C)[C@H](CC(C)C)C(=O)N[C@H](C)C(=O)O[C@@H](C(C)C)C(=O)N(C)[C@H](CC(C)C)C(=O)N[C@H](CC(C)C)C(=O)N(C)[C@H](C(C)C)C(=O)N1C [Example 1, reference compound]", "Ki": "1.7 nM"}
{"COMPOUND": "CC(C)C[C@@H]1C(=O)N[C@H](CC(C)C)C(=O)N(C)[C@H](C(C)C)C(=O)N(C)[C@H]([C@H](O)[C@H](C)CCN2CCCCC2CO)C(=O)N[C@H]([C@@H](C)O)C(=O)N(C)CC(=O)N(C)[C@@H](CC(C)C)C(=O)N[C@H](CC(C)C)C(=O)N(C)[C@H](CC(C)C)C(=O)N[C@H](C)C(=O)O[C@@H](C(C)C)C(=O)N1C (stereo partly drawn) [Example 39] (cyclo([Hiv][dNMeL][dL][dNMeV][X15][d(aThr)][Sar][NMeL][dL][dNMeL][dA]))", "Ki": "100 to 300 nM"}
{"COMPOUND": "CC(C)C[C@@H]1C(=O)N[C@H](CC(C)C)C(=O)N(C)[C@H](C(C)C)C(=O)N(C)[C@H]([C@H](O)[C@H](C)CCCc2ncccn2)C(=O)N[C@H]([C@@H](C)O)C(=O)N(C)CC(=O)N(C)[C@@H](CC(C)C)C(=O)N[C@H](CC(C)C)C(=O)N(C)[C@H](CC(C)C)C(=O)N[C@H](C)C(=O)O[C@@H](C(C)C)C(=O)N1C [Example 16] (cyclo([Hiv][dNMeL][dL][dNMeV][X14][d(aThr)][Sar][NMeL][dL][dNMeL][dA]))", "Ki": "1 to 25 nM"}
{"COMPOUND": "CC(C)C[C@@H]1C(=O)N[C@H](CC(C)C)C(=O)N(C)[C@H](C(C)C)C(=O)N(C)[C@H]([C@H](O)[C@H](C)CCN2CCC(F)(F)CC2)C(=O)N[C@H]([C@@H](C)O)C(=O)N(C)CC(=O)N(C)[C@@H](CC(C)C)C(=O)N[C@H](CC(C)C)C(=O)N(C)[C@H](CC(C)C)C(=O)N[C@H](C)C(=O)O[C@@H](C(C)C)C(=O)N1C [Example 24] (cyclo([Hiv][dNMeL][dL][dNMeV][X20][d(aThr)][Sar][NMeL][dL][dNMeL][dA]))", "Ki": "1 to 25 nM"}
{"COMPOUND": "Cc1cccc(CCC[C@@H](C)[C@@H](O)[C@@H]2C(=O)N[C@H]([C@@H](C)O)C(=O)N(C)CC(=O)N(C)[C@@H](CC(C)C)C(=O)N[C@H](CC(C)C)C(=O)N(C)[C@H](CC(C)C)C(=O)N[C@H](C)C(=O)O[C@@H](C(C)C)C(=O)N(C)[C@H](CC(C)C)C(=O)N[C@H](CC(C)C)C(=O)N(C)[C@H](C(C)C)C(=O)N2C)n1 [Example 17] (cyclo([Hiv][dNMeL][dL][dNMeV][X1][d(aThr)][Sar][NMeL][dL][dNMeL][dA]))", "Ki": "1 to 25 nM"}
{"COMPOUND": "CC[C@H]1NC(=O)[C@@H]([C@H](O)[C@H](C)C/C=C/c2cccc(C)n2)N(C)C(=O)[C@@H](C(C)C)N(C)C(=O)[C@@H](CC(C)C)NC(=O)[C@@H](CC(C)C)N(C)C(=O)[C@H](C(C)C)OC(=O)[C@@H](C)NC(=O)[C@@H](CC(C)C)N(C)C(=O)[C@@H](CC(C)C)NC(=O)[C@H](CC(C)C)N(C)C(=O)CN(C)C1=O [Example 19] (cyclo([Hiv][dNMeL][dL][dNMeV][X10][dAbu][Sar][NMeL][dL][dNMeL][dA]))", "Ki": "1 to 25 nM"}
{"COMPOUND": "CC(C)CC1NC(=O)[C@H](CC(C)C)N(C)C(=O)CN(C)C(=O)C([C@@H](C)O)NC(=O)C([C@H](O)[C@H](C)CCN2CCOCC2)N(C)C(=O)C(C(C)C)N(C)C(=O)C(CC(C)C)NC(=O)C(CC(C)C)N(C)C(=O)C(C(C)C)OC(=O)C(C)NC(=O)C(CC(C)C)N(C)C1=O (stereo in doubt) [Example 2]", "Ki": "9.2 nM"}
{"COMPOUND": "CC(C)C[C@@H]1C(=O)N[C@H](CC(C)C)C(=O)N(C)[C@H](C(C)C)C(=O)N(C)[C@H]([C@H](O)[C@H](C)CCNCc2ccccc2)C(=O)N[C@H]([C@@H](C)O)C(=O)N(C)CC(=O)N(C)[C@@H](CC(C)C)C(=O)N[C@H](CC(C)C)C(=O)N(C)[C@H](CC(C)C)C(=O)N[C@H](C)C(=O)O[C@@H](C(C)C)C(=O)N1C [Example 35] (cyclo([Hiv][dNMeL][dL][dNMeV][X18][d(aThr)][Sar][NMeL][dL][dNMeL][dA]))", "Ki": "25 to 100 nM"}
{"COMPOUND": "CC(C)C[C@@H]1C(=O)N[C@H](CC(C)C)C(=O)N(C)[C@H](C(C)C)C(=O)N(C)[C@H]([C@H](O)[C@H](C)C/C=C/c2ncccn2)C(=O)N[C@H]([C@@H](C)O)C(=O)N(C)CC(=O)N(C)[C@@H](CC(C)C)C(=O)N[C@H](CC(C)C)C(=O)N(C)[C@H](CC(C)C)C(=O)N[C@H](C)C(=O)O[C@@H](C(C)C)C(=O)N1C [Example 15] (cyclo([Hiv][dNMeL][dL][dNMeV][X4][d(aThr)][Sar][NMeL][dL][dNMeL][dA]))", "Ki": "1 to 25 nM"}
{"COMPOUND": "CC(C)C[C@@H]1C(=O)N[C@H](CC(C)C)C(=O)N(C)[C@H](C(C)C)C(=O)N(C)[C@H]([C@H](O)[C@H](C)CCN2CCN(C)CC2)C(=O)N[C@H]([C@@H](C)O)C(=O)N(C)CC(=O)N(C)[C@@H](CC(C)C)C(=O)N[C@H](CC(C)C)C(=O)N(C)[C@H](CC(C)C)C(=O)N[C@H](C)C(=O)O[C@@H](C(C)C)C(=O)N1C [Example 32] (cyclo([Hiv][dNMeL][dL][dNMeV][X34][d(aThr)][Sar][NMeL][dL][dNMeL][dA]))", "Ki": "100 to 300 nM"}

The reported measurements were obtained from patent US9382295B2.
